Molecular target: human CDK4/cyclin D3 (Homo sapiens, UniProt P11802)
Sequence (P11802 whole entry): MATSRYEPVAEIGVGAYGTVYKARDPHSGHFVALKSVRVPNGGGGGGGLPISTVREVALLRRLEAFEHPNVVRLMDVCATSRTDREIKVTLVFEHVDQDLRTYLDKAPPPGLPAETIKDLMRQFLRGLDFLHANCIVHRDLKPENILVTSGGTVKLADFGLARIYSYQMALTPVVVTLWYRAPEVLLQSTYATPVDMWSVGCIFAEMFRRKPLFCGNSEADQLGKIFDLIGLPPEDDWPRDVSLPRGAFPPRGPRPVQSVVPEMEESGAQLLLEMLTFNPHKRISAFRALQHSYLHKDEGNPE
Sequence (P30281 1-264 partner limits assumed): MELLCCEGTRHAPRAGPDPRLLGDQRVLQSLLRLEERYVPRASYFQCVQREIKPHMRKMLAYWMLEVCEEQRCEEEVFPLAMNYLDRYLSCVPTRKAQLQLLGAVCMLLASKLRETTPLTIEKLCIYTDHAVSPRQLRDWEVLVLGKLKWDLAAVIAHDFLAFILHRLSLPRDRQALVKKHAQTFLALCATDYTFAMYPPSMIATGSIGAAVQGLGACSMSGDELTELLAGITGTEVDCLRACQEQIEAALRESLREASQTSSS
Experiment: Inhibition of CDK4/cyclin D retinoblastoma kinase activity (Ki; % inhibition)
Settings: apparent Ki, CDK4/cyclin D3, Rb substrate
Method: Cyclin-dependent kinase activity was measured by quantifying the enzyme-catalyzed, time-dependent incorporation of radioactive phosphate from [^32P]ATP or [^33P]ATP into a protein substrate. […] The phosphorylated substrate was then captured on a nitrocellulose or phosphocellulose membrane using a 96-well filtration manifold, and unincorporated radioactivity was removed by repeated washing with 0.85% phosphoric acid. Radioactivity was quantified by exposing the dried membranes to a phosphorimager. […]
Structures can show the parent of a compound that is named as a salt.
property: Ki (nM)

Consider the reported Ki for these compounds:
> print(dat)
                                   compound  observed.value
1  NC(=O)CNC(=O)c1ccc(Nc2nc(N)c(C(=O)c3c(Cl)cccc3Cl)s2)cc1              17
2  CN1CCC[C@@H]1CNC(=O)c1ccc(Nc2nc(N)c(C(=O)c3c(F)cccc3F)s2)cc1              10

(P) Nc1nc(Nc2ccc(C(=O)NC3CCN(Cc4ccccc4)CC3)cc2)sc1C(=O)c1c(F)cccc1F
(Q) CN(C)CC(C)(C)NC(=O)c1ccc(Nc2nc(N)c(C(=O)c3c(F)cccc3F)s2)cc1 [Example A61, Dihydrochloride]
(R) Nc1nc(Nc2ccc(C(=O)NCCc3cccs3)cc2)sc1C(=O)c1c(F)cccc1F
(S) CC1(C)CCCC(C)(C)N1CCNC(=O)c1ccc(Nc2nc(N)c(C(=O)c3c(F)cccc3F)s2)cc1
(T) CN1CCC[C@@]1(C)CNC(=O)c1ccc(Nc2nc(N)c(C(=O)c3c(F)cccc3F)s2)cc1 [Example A74, Trifluoroacetic Acid Salt]
Ask: Could you please sort these 5 entries by Ki from high to low? Give the order by naming the labels one after another as requested.
Result: T, Q, R, P, S

###

Molecular target: human CDK4/cyclin D3 (Homo sapiens, UniProt P11802)
Construct: made in house; host or cells: insect cells co-infected with baculovirus vectors
Assay: Inhibition of CDK4/cyclin D retinoblastoma kinase activity (Ki; % inhibition)
Assay type: biochemical
Conditions: 0.03 μM compound
property: CDK4 % Inhibition at 0.03 μM (%)

> print(dat)
                                   compound  unit.symbol  observed.value
1  Cc1cccc(N2CCN(C(=O)c3ccc(Nc4nc(N)c(C(=O)c5c(F)cccc5F)s4)cc3)CC2C)c1 (stereo not shown) [Example G308]            %               5

(A) Nc1nc(Nc2ccc(C(=O)NCCc3cccc(C(F)(F)F)c3)cc2)sc1C(=O)c1c(F)cccc1F [Example G276]
(B) Nc1nc(Nc2ccc(C(=O)NC3CCC(O)CC3)cc2)sc1C(=O)c1c(F)cccc1F (stereo not shown) [Example G346]
(C) Nc1nc(Nc2ccc(C(=O)NCc3ccc(Cl)c(Cl)c3)cc2)sc1C(=O)c1c(F)cccc1F [Example G336]
Ask: Provide the items ranked by increasing CDK4 % Inhibition at 0.03 μM. Give the order by naming the labels one after another as requested.
Result: A, B, C

###

Target: Phosphorylated FGF receptor kinase (FGFR1 cytosolic domain) (Homo sapiens, UniProt P11362, C488A/C584S/L457V)
Construct: FGFR1 tyrosine kinase (amino acids 456-766); made in house; host or cells: Sf9 insect cells (baculovirus)
Sequence (P11362 456-766 L457V/C488A/C584S): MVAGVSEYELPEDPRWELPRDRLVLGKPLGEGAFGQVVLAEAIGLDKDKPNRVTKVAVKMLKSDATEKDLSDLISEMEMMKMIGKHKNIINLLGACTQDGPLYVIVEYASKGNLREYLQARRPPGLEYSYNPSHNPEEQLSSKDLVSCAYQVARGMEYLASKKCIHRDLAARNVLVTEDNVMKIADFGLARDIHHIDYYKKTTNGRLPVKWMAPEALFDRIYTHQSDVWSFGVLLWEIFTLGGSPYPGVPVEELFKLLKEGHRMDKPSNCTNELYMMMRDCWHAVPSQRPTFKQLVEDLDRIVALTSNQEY
Assay: Inhibition of phosphorylated FGF receptor tyrosine kinase activity (coupled spectrophotometric assay)
Type: biochemical
Conditions: read-out: P-FGF % Inhibition at 1 μM
Counter-ions that a name gives are not always drawn.
property: inhibition at 1 µM (%)

Consider the reported inhibition at 1 µM for these molecules:
> print(dat)
                                   molecule            property  observed.value
1  CC(CN(C)C)NC(=O)c1ccc(Nc2nc(N)c(C(=O)c3c(F)cccc3F)s2)cc1 (centres unmarked) [Example A20, Hydrochloride Salt]  inhibition at 1 µM               0
2  Nc1nc(Nc2ccc(C(=O)NCCc3ccc(O)cc3)cc2)sc1C(=O)c1c(F)cccc1F  inhibition at 1 µM               0
3  Nc1nc(Nc2ccc(C(=O)NCCN3CCCCC3)cc2)sc1C(=O)c1c(F)cccc1F  inhibition at 1 µM               0
4  CC(CCCC(C)(C)O)NC(=O)c1ccc(Nc2nc(N)c(C(=O)c3c(F)cccc3F)s2)cc1 (centres unmarked)  inhibition at 1 µM               5
5  Nc1nc(Nc2ccc(C(=O)Nc3ccc(N4CCOCC4)cc3)cc2)sc1C(=O)c1c(F)cccc1F  inhibition at 1 µM               0
6  Nc1nc(Nc2ccc(C(=O)Nc3ccc4c(c3)OCCO4)cc2)sc1C(=O)c1c(F)cccc1F  inhibition at 1 µM               0
7  CN(C)CCN(C)C(=O)c1ccc(Nc2nc(N)c(C(=O)c3c(F)cccc3F)s2)cc1  inhibition at 1 µM               7
8  CC(=O)N(C)c1ccc(NC(=O)c2ccc(Nc3nc(N)c(C(=O)c4c(F)cccc4F)s3)cc2)cc1  inhibition at 1 µM               0

(a) Nc1nc(Nc2ccc(C(=O)Nc3ccccc3)cc2)sc1C(=O)c1c(F)cccc1F
(b) CN1CCC[C@H]1CNC(=O)c1ccc(Nc2nc(N)c(C(=O)c3c(F)cccc3F)s2)cc1 [Example A31, Dihydrochloride]
(c) Nc1nc(Nc2ccc(C(=O)NCCNc3ccccc3)cc2)sc1C(=O)c1c(F)cccc1F
Ask: Could you please sort these 3 entries by inhibition at 1 µM from high to low? Give the order by naming the labels one after another as requested.
Result: c, a, b
(c: 8%, a: 5%, b: 0%)
